System: BDF1 mice, B16 melanoma ip, median survival T/C
Experiment: NCI In Vivo Anticancer Drug Screen. Data for tumor model B16 Melanoma (intraperitoneal) in B6D2F1 (BDF1) mice
Conditions: endpoint: median survival time; dose: 75.0 mg/kg/injection; schedule: Q01DX009 (ip); vehicle: saline with Tween-80; higher = longer survival
Toxic doses and inconclusive results are not listed.
Listed here: items and their measured T/C.

# example entries with known answers
- compound: "Cc1nc(-c2ccccc2)nc2c1CCO2"
  T/C: "89 % of control"
- compound: "CCCCCCCCN(C)/N=N/c1nc[nH]c1C(N)=O"
  T/C: "123 % of control"
- compound: "CCNC(C)(C)C(S)c1ccc(Cl)s1 (centres undefined)"
  T/C: "100 % of control"

Here's the next entry for you.
Task: Value wanted: T/C (BDF1 mice, B16 melanoma ip, median survival T/C) of entry COC(=O)[C@@H]1[C@H](O)[C@H](C)[C@H](O)[C@@](C)(O)/C=C\C=C(C)C(=O)Nc2c(C)c(OC(C)=O)c3c(c2O)C(=O)C(C)=C2OCOC(=C23)C(C)=C[C@@](C)(O)[C@H](O)[C@@H](C)[C@H]1OC(C)=O
Output: 97 % of control
